Experiment: Cell viability (MTT assay) in PBMCs
Format: cell-based, Human
Conditions: human, human PBMCs; PBMCs, 24 h, 2000 μg/ml

substance	cytotoxicity at 24 h, 2000 μg/ml / %
H-WVQRVVEKFLK-OH [IS181]	53

----------
Experiment: In vitro combination Anthralin and IS 181 (MTT)
Format: cell-based, Human
Conditions: human, HaCaT keratinocytes, Anthralin 0.1 μM alone, read-out: percent inhibition of cell viability/cytotoxicity

molecule	cytotoxicity at 72 h, 0.1 µM / %
O=C1c2c(O)cccc2Cc2cccc(O)c21 [Anthralin, reference compound]	9.41

----------
Assay: Cell viability of splenocytes (MTT)
Format: cell-based, mouse
Details: mouse, mouse splenocytes; splenocytes, 24 h, 10 μg/ml

substance	viability at 24 h, 10 μg/ml (%)
H-WVQRVVEKFLK-OH [IS181]	97

The values you see were collected from patent US10538561B2.
